# credit: paper PMC10709440

Documented activity at 1 µM across a set of compounds
# target.or.test.system: Drosophila OR10a (Drosophila melanogaster, UniProt Q9VYZ1)
# Construct: expressed in transfected cells
# Sequence (Q9VYZ1 whole entry): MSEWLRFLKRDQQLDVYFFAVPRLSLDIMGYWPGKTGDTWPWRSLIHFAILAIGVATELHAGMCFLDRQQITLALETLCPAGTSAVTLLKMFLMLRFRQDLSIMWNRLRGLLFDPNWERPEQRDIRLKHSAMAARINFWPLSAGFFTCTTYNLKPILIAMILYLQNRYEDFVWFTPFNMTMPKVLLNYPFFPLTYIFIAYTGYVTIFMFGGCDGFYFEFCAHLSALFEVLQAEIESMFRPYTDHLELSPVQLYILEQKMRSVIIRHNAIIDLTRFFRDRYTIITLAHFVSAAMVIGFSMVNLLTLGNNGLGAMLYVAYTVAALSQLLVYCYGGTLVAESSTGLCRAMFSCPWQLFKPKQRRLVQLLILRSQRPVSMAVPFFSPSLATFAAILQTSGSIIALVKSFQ
# Sequence (Q9VNB5 whole entry partner): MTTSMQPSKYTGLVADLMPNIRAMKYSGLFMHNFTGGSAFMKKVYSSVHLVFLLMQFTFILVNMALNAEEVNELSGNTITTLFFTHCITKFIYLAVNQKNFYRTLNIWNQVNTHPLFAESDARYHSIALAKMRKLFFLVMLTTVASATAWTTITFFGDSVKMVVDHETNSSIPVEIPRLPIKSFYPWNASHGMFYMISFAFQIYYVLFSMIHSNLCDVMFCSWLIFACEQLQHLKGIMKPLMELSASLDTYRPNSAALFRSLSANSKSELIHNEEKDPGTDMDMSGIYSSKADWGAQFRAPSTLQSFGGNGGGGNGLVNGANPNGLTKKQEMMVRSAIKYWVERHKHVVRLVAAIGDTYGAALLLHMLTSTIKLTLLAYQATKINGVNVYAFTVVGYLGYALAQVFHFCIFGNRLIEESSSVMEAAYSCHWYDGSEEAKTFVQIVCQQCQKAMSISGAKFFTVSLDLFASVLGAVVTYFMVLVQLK
# protocol.description: cell-based
# Design: GCaMP6 calcium fluorescence in stable HEK293 OR+ORCO lines; peak dF normalised to 50 uM VUAA1 (=1)
# reported.conditions: HEK293; relative to 50 uM VUAA1 response; below 0.05 set to 0; read-out: % activation

[
  {
    "compound": "C=C1[C@H]2CC[C@@H]3[C@H]2C(C)(C)CCC[C@]13C [(+)-longifolene]",
    "unit.text": "%",
    "activity at 1 µM": 8.31
  },
  {
    "compound": "C=C(C)[C@H]1CC=C(C)CC1 [(R)-(+)-limonene]",
    "unit.text": "%",
    "activity at 1 µM": 0
  },
  {
    "compound": "C=C1CC[C@@]23C[C@@H]1C(C)(C)[C@@H]2CC[C@H]3C [(+)-beta-cedrene]",
    "unit.text": "%",
    "activity at 1 µM": 0
  },
  {
    "compound": "C=C(C)C1CCC2(C)OC2C1 (single isomer, unassigned; (+)) [(+)-limonene oxide]",
    "unit.text": "%",
    "activity at 1 µM": 0
  }
]
